Source: paper PMC8772704

What Mean accuracy (%), Table S10 was measured for each of the following?
methodSummary: Autosampler stability at 4 °C of extracted antibiotic-spiked plasma/CAMHB samples
experimentalParameters: CAMHB extracted samples, 15 h autosampler 4 °C; HQC (nominal as E15)
One number for each entry, in %.

Past entries and their recorded results:
{"molecule": "C[C@H]1[C@H](NC(=O)/C(=N\\OC(C)(C)C(=O)O)c2csc(N)n2)C(=O)N1S(=O)(=O)O", "endpointLabel": "Mean accuracy (%), Table S10", "readoutValue": 104.4}
{"molecule": "Cn1c(N)c(NC(=O)NCCN)c[n+]1CC1=C(C(=O)O)N2C(=O)[C@@H](NC(=O)/C(=N\\OC(C)(C)C(=O)[O-])c3nsc(N)n3)[C@H]2SC1", "endpointLabel": "Mean accuracy (%), Table S10", "readoutValue": 112.0}

[ask] For the molecule `C[C@@H](O)[C@H]1C(=O)N2C(C(=O)O)=C(S[C@@H]3CN[C@H](C(=O)N(C)C)C3)[C@H](C)[C@H]12` , what Mean accuracy (%), Table S10 is on record?
[reply] 106.9

====

methodSummary: Autosampler stability at 4 °C of extracted antibiotic-spiked plasma/CAMHB samples
experimentalParameters: CAMHB extracted samples, 15 h autosampler 4 °C; LQC (nominal as E13)
endpointLabel: Mean accuracy (%), Table S10
Give bare numbers, in %.

The examples below pair each entry with its known result.
{"compound": "CO/N=C(\\C(=O)N[C@@H]1C(=O)N2C(C(=O)[O-])=C(C[N+]3(C)CCCC3)CS[C@H]12)c1csc(N)n1 [Cefepime, cefepime]", "readingUnit": "%", "readoutValue": 106.6}
{"compound": "C[C@@H](O)[C@H]1C(=O)N2C(C(=O)O)=C(S[C@@H]3CN[C@H](C(=O)N(C)C)C3)[C@H](C)[C@H]12 [Meropenem, meropenem]", "readingUnit": "%", "readoutValue": 107.7}
{"compound": "CN(C)c1cc(NC(=O)CNC(C)(C)C)c(O)c2c1C[C@H]1C[C@H]3[C@H](N(C)C)C(O)=C(C(N)=O)C(=O)[C@@]3(O)C(O)=C1C2=O [Tigecycline, tigecycline]", "readingUnit": "%", "readoutValue": 101.8}
{"compound": "C[C@@H]1O[C@@H]1P(=O)(O)O [Fosfomycin, fosfomycin]", "readingUnit": "%", "readoutValue": 107.4}
{"compound": "NC(=O)[C@@H]1CC[C@@H]2CN1C(=O)N2OS(=O)(=O)O [Avibactam, avibactam]", "readingUnit": "%", "readoutValue": 108.3}

I need Mean accuracy (%), Table S10 for every entry listed below, if you could help.
1. C[C@@H](O)[C@H]1C(=O)N2C(C(=O)O)=C(S[C@@H]3CN[C@H](CNS(N)(=O)=O)C3)[C@H](C)[C@H]12 [Doripenem, doripenem]
2. Cn1c(N)c(NC(=O)NCCN)c[n+]1CC1=C(C(=O)O)N2C(=O)[C@@H](NC(=O)/C(=N\OC(C)(C)C(=O)[O-])c3nsc(N)n3)[C@H]2SC1 [Ceftolozane, ceftolozane]
3. C[C@H]1[C@H](NC(=O)/C(=N\OC(C)(C)C(=O)O)c2csc(N)n2)C(=O)N1S(=O)(=O)O [Aztreonam, aztreonam]
4. C[C@]1(Cn2ccnn2)[C@H](C(=O)O)N2C(=O)C[C@H]2S1(=O)=O [Tazobactam, tazobactam]

[reply]
1: 108.0; 2: 107.2; 3: 103.7; 4: 112.3

Respectfully, I request Mean accuracy (%), Table S10 for each entry included below.
1. CCN1CCN(C(=O)N[C@@H](C(=O)N[C@@H]2C(=O)N3[C@@H]2SC(C)(C)[C@@H]3C(=O)O)c2ccccc2)C(=O)C1=O [Piperacillin, piperacillin]
2. C[C@H]1COc2c(N3CCN(C)CC3)c(F)cc3c(=O)c(C(=O)O)cn1c23 [Levofloxacin, levofloxacin]
3. CC(C)(O/N=C(\C(=O)N[C@@H]1C(=O)N2C(C(=O)[O-])=C(C[n+]3ccccc3)CS[C@H]12)c1csc(N)n1)C(=O)O [Ceftazidime, ceftazidime]

[reply]
1. 112.7
2. 112.8
3. 107.7
